system: PC-3 prostate; assay: NCI tumour cell line growth inhibition, 48 h
Starred links: 1 amine or outer side, 2 acyl side, 3 side chain; linkers in the order of their positions; H or OH if unused. Positions of bridges follow the written chain, without caps; N, C: chain ends. Non-standard residues stand in square brackets, D forms with d. Residues, ends and D or L forms follow the SMILES beside them. Chains are numbered I, II in the order given. Actinocin(9to1) = Cc1c2oc3c(C)ccc(C(=O)[*:1])c3nc-2c(C(=O)[*:2])c(N)c1=O; NMeY = CN[CH](Cc1ccc(O)cc1)C(=O)O; Sar = CNCC(=O)O
// reported TGI per item

Molecule	TGI
Cc1c2oc3c(C)ccc(C(=O)NC4C(=O)NC(C(C)C)C(=O)N5CCCC5C(=O)N(C)CC(=O)N(C)C(Cc5ccc(O)cc5)C(=O)OC4C)c3nc-2c(C(=O)NC2C(=O)NC(C(C)C)C(=O)N3CCCC3C(=O)N(C)CC(=O)N(C)C(Cc3ccc(O)cc3)C(=O)OC2C)c(N)c1=O (centres undefined) (I: TVP[Sar][NMeY] / II: TVP[Sar][NMeY]; ester I:1-I:C, II:1-II:C; linker I:N-II:N via Actinocin(9to1); configuration not given here)	> 1 µM

What TGI value was documented for this molecule, C/C=C(\C)C(=O)O[C@H]1C=CC(=O)O[C@H]1CCC(=O)[C@H](C)O ?
32 µM

What TGI value was documented for this molecule, CC(=O)OC(OC(C)=O)c1ccc2ccc3cccc4ccc1c2c34 ?
65.6 µM

What TGI value was documented for this molecule, Cn1c(=O)c2c(ncn2CCNC(CO)C(O)c2ccc([N+](=O)[O-])cc2)n(C)c1=O (centres undefined) ?
> 100 µM
